// note: IC50 values for Cytochrome P450 2C9 (Homo sapiens) were reported in different studies
measured.quantity: IC50 (µM)

Example entries begin here.
molecule: O=C(O)c1cccc(C2=C(c3cc(Cl)ccc3OCc3ccc(F)cc3F)CCC2)n1
subject.of.test: Cytochrome P450 2C9 (Homo sapiens)
measured.quantity: IC50
display.unit: µM
endpoint.result: 14

molecule: CC(C)(C)OC(=O)N[C@@H]1CCN(C(=O)OC2C3CC4CC(C3)CC2C4)C1 (stereo partly drawn)
subject.of.test: Cytochrome P450 2C9 (Homo sapiens)
measured.quantity: IC50
display.unit: µM
endpoint.result: 11.4

molecule: COc1nc(-c2nc3n(n2)CCC[C@H]3c2ccccc2C(F)(F)F)ccc1-n1cnc(C)c1
subject.of.test: Cytochrome P450 2C9 (Homo sapiens)
measured.quantity: IC50
display.unit: µM
endpoint.result: 8.51

molecule: CC(C)Nc1cc2c(cc1NS(=O)(=O)c1ccc(-c3ccc(Cl)cc3)cc1)CCN(C)CC2
subject.of.test: Cytochrome P450 2C9 (Homo sapiens)
measured.quantity: IC50
display.unit: µM
endpoint.result: 17

molecule: Oc1cccc(-c2ccc3c(-c4cccc(O)c4)c(O)ccc3c2)c1
subject.of.test: Cytochrome P450 2C9 (Homo sapiens)
measured.quantity: IC50
display.unit: µM
endpoint.result: 0.27

a = O=C(Nc1ccc(Oc2ccc(F)cc2)cc1)[C@@H]1C[C@@H](Cc2ccc(F)cc2)CN1C(=O)Cn1cncn1
b = COCC(=O)N1CCC(c2ccc(C(=O)NC(=N)N)cc2C(F)(F)F)CC1
### Prompt Please tell me which of the two, a or b , has the higher reported IC50 value. Please reply using the label of the selected record.
### Response b
(b: 25 µM, a: 2.19 µM)

* * *

// note: IC50 values for Cytochrome P450 2C9 (Homo sapiens, UniProt P11712) were reported in different studies
measured.quantity: IC50 (µM)

molecule: COc1cccc(NC(C(=O)c2c[nH]c3ccccc23)c2nc3ccccc3o2)c1 (stereo not drawn)
subject.of.test: Cytochrome P450 2C9 (Homo sapiens, UniProt P11712)
display.unit: µM
IC50: 6.1

a = CCCCNC(=O)c1ccc(OC)c(CSc2nc3cc(F)ccc3n2CC(=O)O)c1
b = C[C@@H]1CN(C(=O)Nc2ccccc2)c2ccc(-c3ccc([C@H]4CC[C@H](CC(=O)O)CC4)cc3)cc2O1
c = COc1ccc(-c2ccc(Cn3c(CC(C)(C)C(=O)O)c(SC(C)(C)C)c4cc(OCc5ccccn5)ccc43)cc2)nn1
### Prompt # desc sort on IC50 across 3 molecules Reply with the item labels sorted in the order that was asked for.
### Response c, b, a

* * *

// note: IC50 values for Cytochrome P450 2C9 (Homo sapiens) were reported in different studies
measured.quantity: IC50 (µM)

Example entries begin here.
mol.smiles: Fc1ccc(-c2nc3c(N4CCOCC4)nccn3c2-c2ccc3[nH]ncc3c2)cc1
display.unit: µM
IC50: 0.5
//
mol.smiles: CCNc1cc(C(=O)N[C@@H](Cc2ccccc2)[C@H](O)CNCc2cccc(C(F)(F)F)c2)c(F)c(N2CCCC2=O)c1
display.unit: µM
IC50: 60
//
mol.smiles: N#Cc1csc(NC(=O)C2c3ccccc3Oc3ccccc32)n1
display.unit: µM
IC50: 2.9

1 = O=C(CCc1[nH]nc2c1ccc1cc(O)ccc12)Nc1ccccc1C(=O)O
2 = COc1ccc(C(=O)N2CCc3ccccc32)cc1CSc1nc2cc(F)ccc2n1CC(=O)O
### Prompt Please tell me which of the two, 1 or 2 , has the higher reported IC50 value. Please reply using the label of the selected record.
### Response 2

* * *

pIC50: −log10 of the molar value.
// note: pIC50 values for UniProtKB P11712 were reported in different studies
measured.quantity: pIC50

A = O=C(O)c1ccccc1Oc1ccc(Cl)cc1NS(=O)(=O)c1ccc(Cl)c(Cl)c1
B = NCCC(=O)Nc1cccc2c1cnn2S(=O)(=O)c1cccc2ccccc12
C = Cl.N[C@@H]1CCC=C(c2ccc(F)cc2)[C@H]1CSc1cc(F)c(S(=O)(=O)Nc2nccs2)cc1Cl
### Prompt Sort the items above on pIC50, descending. Reply with the item labels sorted in the order that was asked for.
### Response C, A, B
(C: 7.00, A: 5.38, B: 5.15)

I = CC(=O)N1CCC(C(=O)N2C[C@H](c3noc(C(C)(C)c4cc(C(F)(F)F)cc(C(F)(F)F)c4)n3)[C@@H](c3ccc(F)cc3C)C2)CC1
II = COc1cc(NC(C(=O)c2c[nH]c3ccccc23)c2ccccc2)cc(OC)c1 (stereo in doubt; 12b)
### Prompt Please tell me which of the two, I or II , has the higher reported pIC50 value. Please reply using the label of the selected record.
### Response II
(II: 5.52, I: 5.05)

P = O=C1Nc2ccccc2/C1=C/c1ccc2cn[nH]c2c1
Q = Cc1cc(C(N)=O)nn1-c1cccc(-c2cc(C(F)(F)F)ccc2C(F)(F)F)c1
R = COC(=O)C(C)(C)C(c1ccc(Nc2ccccc2)cc1)n1cncn1 (configuration not stated)
### Prompt List the 3 entries from lowest pIC50 to highest pIC50 value. Reply with the item labels sorted in the order that was asked for.
### Response R, Q, P
(R: 5.04, Q: 5.59, P: 6.30)

* * *

// note: IC50 values for UniProt P11712 were reported in different studies
measured.quantity: IC50 (µM)

Example entries begin here.
mol.smiles: Cc1ccc2c(N3CCN(CCc4cccc(-c5cncnc5)c4)CC3)cccc2n1
measured.quantity: IC50
endpoint.result: 20
//
mol.smiles: COc1cc(OC)c(Cl)c(NC(=O)N(C)c2cc(Nc3cccc(N4CCN(C)CC4)c3)ncn2)c1Cl
measured.quantity: IC50
endpoint.result: 1.7
//
mol.smiles: N#Cc1ccc(N[C@@H]2CCN(C(=O)O[C@H]3C4CC5CC3C[C@](C(N)=O)(C5)C4)C2)nc1
measured.quantity: IC50
endpoint.result: 23.1

P = O=C(Nc1ccc2cnn(S(=O)(=O)c3cccc4ccccc34)c2c1)C1CCNCC1
Q = NCc1ccc(-c2cnccc2-c2ccco2)s1
### Prompt Please tell me which of the two, P or Q , has the higher reported IC50 value. Please reply using the label of the selected record.
### Response P

* * *

// note: pIC50 values for Cytochrome P450 2C9 (Homo sapiens) were reported in different studies
pIC50: −log10 of the molar value.

Example entries begin here.
compound: CCN(Cc1cc(C(F)(F)F)ccc1-c1cc(CC(=O)O)ccc1OC)C(=O)OC
pIC50: < 4.52
--
compound: c1ccc(CN[C@H]2CC[C@H](c3ccc(OCCCN4CCCCC4)cc3)CC2)cc1
pIC50: 6.00
--
compound: O=C(Nc1ccc(C[C@@H]2CC[C@H]([C@H](O)c3ccccc3)N2)cc1)[C@@H]1CCc2nccc(=O)n21
pIC50: < 4.00

Let us examine a further case.
### Prompt Query: pIC50; subject: `O=C([O-])c1cccc(Cc2cc(Cl)ccc2OCc2ccc(F)cc2Cl)n1.[Na+]`
### Response 4.82

* * *

pIC50: −log10 of the molar value.
// note: pIC50 values for Cytochrome P450 2C9 (Homo sapiens) were reported in different studies
measured.quantity: pIC50

compound: Cc1noc(C)c1-c1ccc2c(Nc3ccccc3)c(C(N)=O)cnc2c1
pIC50: 5.68
--
compound: CN([C@@H]1CCC2=C(C1)C1C=CC=CC1N2CC(=O)O)S(=O)(=O)c1ccc(F)cc1 (some centres undefined)
pIC50: 4.74
--
compound: CC[C@H](c1ccccc1)n1c(=O)[nH]c2cnc3cc(-c4c(C)noc4C)c(OC)cc3c21
pIC50: 5.62

a = O=c1nc(OC[C@H]2COCCO2)cc2n1CCc1cc(C#CC3CC3)ccc1-2
b = N=C(N)NC(=O)c1ccc(C2CCN(C(=O)c3ccc(O)nc3)CC2)c(C(F)(F)F)c1
c = CN1C[C@H](C(=O)Nc2ccc(Cl)cc2)[C@@H](c2ccc(/C=C/C(=O)Nc3ccccc3N)cc2F)C1 (racemic)
d = Cn1c(=O)c2cc(O)ccc2c2ccc(CCC(=O)Nc3ccccc3C(=O)O)cc21
### Prompt # desc sort on pIC50 across 4 compounds Reply with the item labels sorted in the order that was asked for.
### Response a, d, c, b
(a: 5.73, d: 5.33, c: 4.89, b: 4.54)

* * *

pIC50: −log10 of the molar value.
// note: pIC50 values for Cytochrome P450 2C9 (Homo sapiens) were reported in different studies
measured.quantity: pIC50

Example entries begin here.
compound: COc1ccc2c(c1)[C@]1(C[C@H]1c1ccc3c(/C=C/c4ccc(CN5[C@H](C)CN(C)C[C@@H]5C)cc4)n[nH]c3c1)C(=O)N2
endpoint.result: 6.25
//
compound: CC(Cc1ccn(-c2ccc(O)cn2)n1)C(=O)NC1=C(C(=O)O)CC(c2cc(F)cc(F)c2)CC1 (configuration not stated)
endpoint.result: 4.64
//
compound: CN([C@@H]1CCc2c(CC(=O)O)c3ccccn3c2C1)S(=O)(=O)c1ccc(F)cc1
endpoint.result: 4.77
//
compound: NCC1CCC(CNc2nc(NCc3ccccc3Cl)ncc2[N+](=O)[O-])CC1 (configuration not stated)
endpoint.result: 6.00
//
compound: CCCCN(C)C(=O)c1ccc(-n2nc(C(F)(F)F)c3c2CCCC3)cc1
endpoint.result: 5.22

A = O=C(NC[C@]1(CC2CC2)CC[C@@H](S(=O)(=O)c2cnn[nH]2)CC1)c1ccc(Cl)cc1Cl
B = Cc1cc2c(F)c(Oc3ncnn4cc(OC[C@@H](C)OC(=O)C(C)N)c(C)c34)ccc2[nH]1 (single isomer, unassigned; 8)
### Prompt // compare measured pIC50 between A and B ; output the lower one Please reply using the label of the selected record.
### Response B
(B: 5.01, A: 8.00)

a = CC(=O)N1CCC(C(=O)N2C[C@H](C(=O)N(C)Cc3cc(C(F)(F)F)cc(C(F)(F)F)c3)[C@@H](c3ccccc3)C2)CC1 (stereo in doubt; 8c)
b = CNC(=N)c1cc(C)c2nc(-c3c(NCC(O)c4cccc(Cl)c4)cc[nH]c3=O)[nH]c2c1 (configuration not stated)
### Prompt // compare measured pIC50 between a and b ; output the lower one Please reply using the label of the selected record.
### Response b
(b: 4.12, a: 4.59)
